The reported numbers originate from patent US8088758B2.

# ASSAYED_SYSTEM: recombinant human 17β-hydroxysteroid dehydrogenase type 1 (Homo sapiens, UniProt P14061)
# Construct: made in house; host or cells: Sf9 insect cells (baculovirus, Bac to Bac Expression System)
# PROCEDURE_DETAILS: Inhibition of recombinant human 17β-hydroxysteroid dehydrogenase type 1 (conversion of 3H-estrone to estradiol, HPLC)
# Assay type: biochemical
# RUN_PARAMETERS: inhibitor 1 μm; 30 nM 3H-estrone, 1 mM NADPH, 30 min at RT; read-out: Inhibition of rec. 17β-HSD1 (% inhibition), 1 μm
# Method: 1. Inhibition of the 17β-hydroxysteroid Dehydrogenase Type 1 Enzyme 17β-HSD1 Purification: Recombinant baculovirus was generated by the “Bac to Bac Expression System” (Invitrogen). […] Recombinant protein (0.1 μg/ml) was incubated in 20 mM KH2PO4 pH 7.4 with 30 nM 3H-estrone and 1 mM NADPH for 30 min at RT, in the presence of potential inhibitors at concentrations of 1 μM or 0.1 μM. […] Radioactivity was monitored in the eluate by a Packard Flow Scintillation Analyzer. […]
Item-by-item account of inhibition at 1 µM

{"columns": ["COMPOUND", "inhibition at 1 µM (%)"],
 "data": [
  ["COc1ccc2c(c1)CC[C@H]1[C@@H]3[C@H](CCCNC(=O)Nc4cccc5ccccc45)CC(=O)[C@@]3(C)CC[C@H]21 [Example 451]", 74.6],
  ["COc1ccc2c(c1)CC[C@H]1[C@@H]3[C@H](CCCCC(=O)NC4CCCCC4)CC(=O)[C@@]3(C)CC[C@H]21 [Example 331]", 88],
  ["C[C@]12CC[C@@H]3c4ccc(O)cc4CC[C@H]3[C@@H]1[C@@H](CNS(=O)(=O)c1ccc3ccccc3c1)CC2=O [Example 661]", 82],
  ["COc1ccc2c(c1)CC[C@H]1[C@@H]3[C@H](CCC(=O)Nc4ncc(C)s4)CC(=O)[C@@]3(C)CC[C@H]21 [Example 329]", 96.2]
]}

====

Item-by-item account of inhibition at 0.1 µM
# ASSAYED_SYSTEM: recombinant human 17β-hydroxysteroid dehydrogenase type 1 (Homo sapiens, UniProt P14061)
# Construct: made in house; host or cells: Sf9 insect cells (baculovirus, Bac to Bac Expression System)
# PROCEDURE_DETAILS: Inhibition of recombinant human 17β-hydroxysteroid dehydrogenase type 1 (conversion of 3H-estrone to estradiol, HPLC)
# Assay type: biochemical
# RUN_PARAMETERS: inhibitor 100 nM; 30 nM 3H-estrone, 1 mM NADPH, 30 min at RT; read-out: Inhibition of rec. 17β-HSD1 (% inhibition), 100 nM

{"columns": ["COMPOUND", "inhibition at 0.1 µM"],
 "data": [
  ["CN(Cc1ccccc1)C(=O)CCC[C@@H]1CC(=O)[C@@]2(C)CC[C@@H]3c4ccc(O)cc4CC[C@H]3[C@H]12", "60.5%"],
  ["COc1ccc2c(c1)CC[C@H]1[C@@H]3[C@H](CCCCC(=O)N(C)Cc4ccccc4)CC(=O)[C@@]3(C)CC[C@H]21", "39.8%"],
  ["COc1ccc2c(c1)CC[C@H]1[C@@H]3[C@H](CCCCCC(=O)NCc4cccnc4)CC(=O)[C@@]3(C)CC[C@H]21", "26.9%"],
  ["COc1ccc2c(c1)CC[C@H]1[C@@H]3[C@H](CCCCCC(=O)N4CCOCC4)CC(=O)[C@@]3(C)CC[C@H]21", "28.7%"],
  ["COc1ccc2c(c1)CC[C@H]1[C@@H]3[C@H](CCCCOC(=O)Nc4cccc([N+](=O)[O-])c4)CC(=O)[C@@]3(C)CC[C@H]21", "29.3%"],
  ["COc1ccc(S(=O)(=O)N(C)C[C@H]2CC(=O)[C@@]3(C)CC[C@@H]4c5ccc(O)cc5CC[C@H]4[C@H]23)cc1", "47.4%"],
  ["COc1ccc2c(c1)CC[C@H]1[C@@H]3[C@H](CCCCCC(=O)NCc4ccccc4)CC(=O)[C@@]3(C)CC[C@H]21", "40.5%"],
  ["COc1ccc2c(c1)CC[C@H]1[C@@H]3[C@H](CCCCC(=O)NC4CC4)CC(=O)[C@@]3(C)CC[C@H]21", "25.2%"],
  ["Cc1cccc(S(=O)(=O)NC[C@H]2CC(=O)[C@@]3(C)CC[C@@H]4c5ccc(O)cc5CC[C@H]4[C@H]23)c1", "36.9%"],
  ["COc1ccc2c(c1)CCC1C2CC[C@]2(C)C(=O)C[C@@H](CCCC(=O)NCCc3cccs3)C12 (stereo partly drawn)", "29.6%"],
  ["COc1ccc2c(c1)CC[C@H]1[C@@H]3[C@H](CCCCC(=O)NC4CCCCC4)CC(=O)[C@@]3(C)CC[C@H]21", "37%"],
  ["COc1ccc2c(c1)CC[C@H]1[C@@H]3[C@H](CCCCCC(=O)NCc4ccncc4)CC(=O)[C@@]3(C)CC[C@H]21", "31.1%"]
]}

====

Item-by-item account of inhibition at 0.1 µM
# ASSAYED_SYSTEM: recombinant human 17β-hydroxysteroid dehydrogenase type 1 (Homo sapiens)
# Construct: made in house; host or cells: Sf9 insect cells (baculovirus, Bac to Bac Expression System)
# Sequence (P14061 1-328): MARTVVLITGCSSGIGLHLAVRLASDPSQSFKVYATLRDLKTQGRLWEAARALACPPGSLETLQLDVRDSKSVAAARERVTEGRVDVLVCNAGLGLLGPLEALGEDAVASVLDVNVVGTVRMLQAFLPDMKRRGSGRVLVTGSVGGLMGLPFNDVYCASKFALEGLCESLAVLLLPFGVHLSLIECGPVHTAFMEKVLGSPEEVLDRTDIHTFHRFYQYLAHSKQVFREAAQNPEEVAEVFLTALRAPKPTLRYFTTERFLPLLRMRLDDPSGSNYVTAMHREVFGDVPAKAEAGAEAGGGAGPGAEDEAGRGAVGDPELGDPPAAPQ
# PROCEDURE_DETAILS: Inhibition of recombinant human 17β-hydroxysteroid dehydrogenase type 1 (conversion of 3H-estrone to estradiol, HPLC)
# Assay type: biochemical
# RUN_PARAMETERS: inhibitor 100 nM; 30 nM 3H-estrone, 1 mM NADPH, 30 min at RT; read-out: Inhibition of rec. 17β-HSD1 (% inhibition), 100 nM

{"columns": ["MOLECULE", "QUANTITY_UNIT", "inhibition at 0.1 µM"],
 "data": [
  ["COc1ccc2c(c1)CC[C@H]1[C@@H]3[C@H](CCCCC(=O)NCc4ccccc4)CC(=O)[C@@]3(C)CC[C@H]21", "%", 51.4],
  ["COc1ccc2c(c1)CC[C@H]1[C@@H]3[C@H](CCCCCC(=O)NCCc4c[nH]c5c(C)cccc45)CC(=O)[C@@]3(C)CC[C@H]21", "%", 51.5],
  ["CN(C[C@H]1CC(=O)[C@@]2(C)CC[C@@H]3c4ccc(O)cc4CC[C@H]3[C@H]12)S(=O)(=O)c1cccs1", "%", 49.2],
  ["COc1ccc2c(c1)CC[C@H]1[C@@H]3[C@H](CCC(=O)NCc4ccc(Cl)cc4)CC(=O)[C@@]3(C)CC[C@H]21", "%", 28.5],
  ["COc1ccc2c(c1)CC[C@H]1[C@@H]3[C@H](CCCCC(=O)NCc4ccco4)CC(=O)[C@@]3(C)CC[C@H]21", "%", 47.9],
  ["COc1ccc(NC(=O)NCCCC[C@@H]2CC(=O)[C@@]3(C)CC[C@@H]4c5ccc(OC)cc5CC[C@H]4[C@H]23)cc1", "%", 28.7],
  ["C[C@]12CC[C@@H]3c4ccc(O)cc4CC[C@H]3[C@@H]1[C@@H](CNS(=O)(=O)c1cccs1)CC2=O", "%", 76.9],
  ["COc1ccc2c(c1)CCC1C2CC[C@]2(C)C(=O)C[C@@H](CCCC(=O)NCCc3ccc(O)cc3)C12 (stereo partly shown)", "%", 27.3],
  ["COc1ccc2c(c1)CCC1C2CC[C@]2(C)C(=O)C[C@H](C(=O)NCc3nc4ccccc4[nH]3)C12 (stereo partly shown)", "%", 25],
  ["COc1ccc2c(c1)CC[C@H]1[C@@H]3[C@H](CCCCC(=O)NCc4ccc5c(c4)OCO5)CC(=O)[C@@]3(C)CC[C@H]21", "%", 59],
  ["CNC(=O)CCC[C@@H]1CC(=O)[C@@]2(C)CC[C@@H]3c4ccc(OC)cc4CC[C@H]3[C@H]12", "%", 30.5],
  ["COc1ccc2c(c1)CC[C@H]1[C@@H]3[C@H](CCCCC(=O)NCCc4cccs4)CC(=O)[C@@]3(C)CC[C@H]21", "%", 58.2],
  ["CN(C[C@H]1CC(=O)[C@@]2(C)CC[C@@H]3c4ccc(O)cc4CC[C@H]3[C@H]12)S(=O)(=O)c1cccc(Cl)c1", "%", 25.8]
]}
